# test.target: SMS2 (Homo sapiens, UniProt Q8NHU3)
# Construct: CAO, Yu research team, National Protein Scientific Center (Shanghai); supplied by an outside laboratory, not a commercial vendor
# Sequence (Q8NHU3 1-365): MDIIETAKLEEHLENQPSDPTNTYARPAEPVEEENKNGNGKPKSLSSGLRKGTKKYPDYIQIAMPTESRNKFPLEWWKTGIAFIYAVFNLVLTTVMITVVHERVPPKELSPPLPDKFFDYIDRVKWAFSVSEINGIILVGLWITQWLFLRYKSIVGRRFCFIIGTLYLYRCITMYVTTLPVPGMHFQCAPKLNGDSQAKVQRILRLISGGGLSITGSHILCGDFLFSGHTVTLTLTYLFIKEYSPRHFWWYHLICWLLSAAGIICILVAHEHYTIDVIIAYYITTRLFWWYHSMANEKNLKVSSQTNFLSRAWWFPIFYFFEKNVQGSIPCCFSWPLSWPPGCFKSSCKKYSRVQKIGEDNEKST
# method.summary: SMS2 inhibitory activity in vitro, HPLC fluorescence quantitative detection (C6-NBD-ceramide to C6-NBD-SM)
# Assay type: biochemical
# condition.context: 10 µM test compound; SMS2 pure enzyme; 37°C, 30 minutes; average of two measurements; read-out: Inhibition rate on SMS2 at C/µM 10
Parameter: inhibition at 10 µM. Scope: all listed entries.
metric: inhibition at 10 µM (%)

O=C(Nc1cccnc1)c1cnccc1OCc1ccccc1 [12-16]: 17
O=C(Nc1ccccc1)c1sccc1OCc1ccccc1 [1-7]: 50
Cc1ccncc1NC(=O)c1sccc1OCc1ccccc1 [1-69]: 65
O=C(Nc1ccnnc1)c1sccc1OCc1ccccc1 [12-2]: 23
O=C(Nc1cncs1)c1sccc1OCc1ccccc1 [1-65]: 61
O=C(Nc1cnccc1Cl)c1sccc1OCc1ccccc1 [1-91]: 56
CCCCCCCCOc1ccsc1C(=O)Nc1cccnc1 [1-96]: 50
COC(=O)c1ccccc1COc1ccsc1C(=O)Nc1cccnc1 [1-22]: 81
